Tested on: Escherichia coli
experiment_description: Antibacterial activity against Escherichia coli NCIM 2065 after 18 to 20 hrs by broth dilution assay
Format: functional
The following compounds are shown together with reported MIC values.
Field: numeric (µg/mL). Do not append units.

Below, each entry is followed by its recorded MIC result.
{"smiles_input": "CCCCCCCCCCCC(=O)N[C@@H](C)/C=C/C(=O)N[C@@H](CCCNC(=N)N)C(=O)N[C@@H](C)/C=C/C(=O)N[C@@H](CCCNC(=N)N)C(N)=O", "MIC (µg/mL)": 12.5}
{"smiles_input": "CCCCCCCC(=O)N[C@H](/C=C/C(=O)N[C@@H](CCCCN)C(=O)N[C@H](/C=C/C(=O)N[C@@H](CCCCN)C(N)=O)Cc1ccc(O)cc1)Cc1ccc(O)cc1", "MIC (µg/mL)": 25}

Would you kindly look at the next entry?
Asked: Find the recorded MIC belonging to CCCCCCCCCCCC(=O)N[C@@H](C)/C=C/C(=O)N[C@@H](CCCCN)C(=O)N[C@@H](C)/C=C/C(=O)N[C@@H](CCCCN)C(N)=O and report it.
Given back: 6.25
